Test system: UO-31
Assay protocol: NCI-60 one-dose screen
Assay type: cell-based
Experimental context: Homo sapiens; UO-31, Renal Cancer panel; single dose 10^−5 M; read-out: Growth inhibition %
Parameter measured: inhibition at 10 µM (%)
Give the quantity in %, number only.

Here is how some compounds turned out for inhibition at 10 µM.
> print(dat)
                                   compound  observed.measurement
1  Fc1ccc(CNc2c3ccccc3nc3ccccc23)cc1F [Compound 22, Acridin-9-yl-(3,4-difluorobenzyl)-amine]                  84.5
2  Cc1ccc2nc3ccccc3c(NCc3ccc(Cl)cc3)c2c1 [Compound 31]                  75.5
3  COc1cccc(CNc2c3ccccc3nc3ccccc23)c1OC [Compound 16, Acridin-9-yl-(2,3-dimethoxybenzyl)-amine]                  74.8

Q: Query: inhibition at 10 µM; subject: Fc1cccc(CNc2c3ccccc3nc3ccccc23)c1F [Compound 20, Acridin-9-yl-(2,3-difluorobenzyl)-amine]
Ans: 60

Measured values drawn from paper PMC9866191 for this set.
